# test-system: Histone deacetylase 8 (Homo sapiens)
# Sequence (Q9BY41 whole entry): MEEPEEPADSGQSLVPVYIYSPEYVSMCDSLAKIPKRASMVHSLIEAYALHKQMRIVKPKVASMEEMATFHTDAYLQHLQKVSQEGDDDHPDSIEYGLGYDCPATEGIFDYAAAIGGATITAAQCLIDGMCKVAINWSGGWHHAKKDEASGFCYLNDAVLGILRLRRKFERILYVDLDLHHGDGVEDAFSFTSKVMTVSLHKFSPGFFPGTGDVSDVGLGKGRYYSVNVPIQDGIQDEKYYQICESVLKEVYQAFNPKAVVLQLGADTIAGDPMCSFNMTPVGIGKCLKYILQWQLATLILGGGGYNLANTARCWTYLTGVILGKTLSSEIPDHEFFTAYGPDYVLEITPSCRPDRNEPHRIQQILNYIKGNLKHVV
For each record, write down the corresponding pIC50.
Notebook: values listed as pIC50 are -log10 of the concentration (mol/L).

INPUT: For O=C(/C=C/c1ccc(/C=N/OCCN2CCOCC2)cc1)NO , what is its reported pIC50?
OUTPUT: 6.63

INPUT: For O=C(/C=C/c1ccc(/C=N/OCc2ccc([N+](=O)[O-])cc2)cc1)NO , what is its reported pIC50?
OUTPUT: 7.15

INPUT: For O=C(/C=C/c1ccc(-c2cc(CN3CCOCC3)on2)cc1)NO , what is its reported pIC50?
OUTPUT: 6.90

INPUT: For COC(=O)c1ccc(CO/N=C/c2ccc(/C=C/C(=O)NO)cc2)cc1 , what is its reported pIC50?
OUTPUT: 6.22

###

# Tested on: HCT-116
# test-protocol: Cytotoxicity against human HCT116 cells after 48 hrs by SRB assay
# Assay type: functional, cell-based
# applied-conditions: HCT-116, 48 h
measurement-label: IC50 (µM)
Quick reminder: number only, in µM, skip the unit.

INPUT: For O=C(/C=C/c1cccc(/C=N/OCCN2CCOCC2)c1)NO , what is its reported IC50?
OUTPUT: 4

INPUT: For O=C(/C=C/c1ccc(/C=N/OCc2c(F)c(F)c(F)c(F)c2F)cc1)NO , what is its reported IC50?
OUTPUT: 2.4

INPUT: For O=C(/C=C/c1ccc(/C=N/OCc2ccccc2)cc1)NO , what is its reported IC50?
OUTPUT: 2.8

INPUT: For O=C(/C=C/c1ccc(/C=N/Oc2ccccc2)cc1)NO , what is its reported IC50?
OUTPUT: 3.7

INPUT: For O=C(/C=C/c1ccc(-c2cc(CN3CCOCC3)on2)cc1)NO , what is its reported IC50?
OUTPUT: 4

INPUT: For O=C(/C=C/c1ccc(C2=NOC(CN3CCOCC3)C2)cc1)NO (stereo not given) , what is its reported IC50?
OUTPUT: 3

INPUT: For O=C(/C=C/c1ccc(/C=N/OCCN2CCOCC2)cc1)NO , what is its reported IC50?
OUTPUT: 1.8

INPUT: For C=CCO/N=C/c1ccc(/C=C/C(=O)NO)cc1 , what is its reported IC50?
OUTPUT: 3.5

INPUT: For COC(=O)c1ccc(CO/N=C/c2ccc(/C=C/C(=O)NO)cc2)cc1 , what is its reported IC50?
OUTPUT: 1.7

INPUT: For O=C(/C=C/c1ccc(/C=N/O)cc1)NO , what is its reported IC50?
OUTPUT: 3.5

INPUT: For O=C(CCc1ccc(/C=N/OCc2ccc([N+](=O)[O-])cc2)cc1)NO , what is its reported IC50?
OUTPUT: 3.1

INPUT: For O=C(/C=C/c1ccc(/C=N/OCc2ccc([N+](=O)[O-])cc2)cc1)NO , what is its reported IC50?
OUTPUT: 1.2

###

IC50, Histone deacetylase 9 (Homo sapiens), per-entry values.
Quick reminder: number only, in µM, skip the unit.

INPUT: For O=C(/C=C/c1ccc(/C=N/OCCN2CCOCC2)cc1)NO , what is its reported IC50?
OUTPUT: 13.1

INPUT: For O=C(/C=C/c1ccc(/C=N/OCc2ccc([N+](=O)[O-])cc2)cc1)NO , what is its reported IC50?
OUTPUT: 2.47

INPUT: For O=C(/C=C/c1ccc(/C=N/OCc2c(F)c(F)c(F)c(F)c2F)cc1)NO , what is its reported IC50?
OUTPUT: 12

INPUT: For O=C(/C=C/c1ccc(-c2cc(CN3CCOCC3)on2)cc1)NO , what is its reported IC50?
OUTPUT: 11.2

###

For each record, write down the corresponding pIC50.
Notebook: values listed as pIC50 are -log10 of the concentration (mol/L).

INPUT: Quick check: pIC50 on Histone deacetylase 11 (Homo sapiens), item O=C(/C=C/c1ccc(/C=N/OCCN2CCOCC2)cc1)NO ?
OUTPUT: 5.51

INPUT: Quick check: pIC50 on Histone deacetylase 11 (Homo sapiens), item O=C(/C=C/c1ccc(-c2cc(CN3CCOCC3)on2)cc1)NO ?
OUTPUT: 5.20

INPUT: Quick check: pIC50 on Histone deacetylase 11 (Homo sapiens), item O=C(/C=C/c1ccc(/C=N/OCc2ccc([N+](=O)[O-])cc2)cc1)NO ?
OUTPUT: 6.10

###

measurement-label: IC50 (nM)
Quick reminder: number only, in nM, skip the unit.

INPUT: Quick check: IC50 on Histone deacetylase 3 (Homo sapiens, UniProt O15379), item O=C(/C=C/c1ccc(/C=N/OCc2c(F)c(F)c(F)c(F)c2F)cc1)NO ?
OUTPUT: 2800

INPUT: Quick check: IC50 on Histone deacetylase 3 (Homo sapiens, UniProt O15379), item O=C(/C=C/c1ccc(/C=N/OCc2ccc([N+](=O)[O-])cc2)cc1)NO ?
OUTPUT: 160

INPUT: Quick check: IC50 on Histone deacetylase 3 (Homo sapiens, UniProt O15379), item O=C(/C=C/c1ccc(-c2cc(CN3CCOCC3)on2)cc1)NO ?
OUTPUT: 3140

INPUT: Quick check: IC50 on Histone deacetylase 3 (Homo sapiens, UniProt O15379), item O=C(/C=C/c1ccc(/C=N/OCCN2CCOCC2)cc1)NO ?
OUTPUT: 4080

###

For each record, write down the corresponding IC50.
# Test system: HCT-116
# test-protocol: Cytotoxicity against human HCT116 cells after 48 hrs by SRB assay
# Format: functional, cell-based
# applied-conditions: HCT-116, 48 h

INPUT: For O=C(C#Cc1ccc(/C=N/OCc2ccc([N+](=O)[O-])cc2)cc1)NO , what is its reported IC50?
OUTPUT: > 20 µM

INPUT: For Nc1ccccc1NC(=O)/C=C/c1ccc(/C=N/OCc2ccc([N+](=O)[O-])cc2)cc1 , what is its reported IC50?
OUTPUT: > 20 µM

INPUT: For Nc1ccccc1NC(=O)/C=C/c1ccc(/C=N/OCCN2CCOCC2)cc1 , what is its reported IC50?
OUTPUT: > 20 µM

// provenance: ChEMBL document CHEMBL1153969
